- target_system: GFRα1-RET (Homo sapiens)
- measurement_notes: Elk1 reporter-gene (luciferase) assay in cells expressing GFRα1-RET
- measurement_context: MG87 murine fibroblasts stably transfected with PathDetect Elk-1, GFRα1 and RET, 6 concentrations, agonist/activator activity
EC50 values by entry
recorded_metric: EC50

compound	val
Cc1cc(S(=O)(=O)N2CCC(c3ccccc3)CC2)cc(N2[C@@H]3CC[C@H]2CN(C(=O)c2ccc(F)cc2Cl)C3)c1O	< 1 µM
COc1ccc(S(=O)(=O)N(C)CCCF)cc1N1CCN(C(=O)c2ccc(F)cc2Cl)CC1C (racemic)	1 to 10 µM
O=C(c1cc(F)c(F)cc1Cl)N1C[C@H]2CC[C@@H](C1)N2c1cc(S(=O)(=O)N2CCC(c3ccccc3)CC2)cc2c1OCC2	< 1 µM
CNC1CN(c2ccc(S(=O)(=O)N3CCC(c4ccccc4)CC3)cc2N2[C@@H]3CC[C@H]2CN(C(=O)c2ccc(F)cc2Cl)C3)C1	< 1 µM
O=C(c1ccc(F)cc1Cl)N1C[C@H]2CC[C@@H](C1)N2c1cc(S(=O)(=O)N2CCC(c3ccc(F)cc3)CC2)cc2c1OCC2	< 1 µM
COc1ccc(S(=O)(=O)N2CCC(c3ccccc3)CC2)cc1N1[C@@H]2CC[C@H]1CN(C(=O)c1cc(F)c(F)cc1Cl)C2	< 1 µM
O=C(c1ccc(F)cc1Cl)N1C[C@H]2CC[C@@H](C1)N2c1cc(S(=O)(=O)N2CCC(CCc3ccccc3)CC2)ccc1O	< 1 µM
CN(C1COC1)S(=O)(=O)c1cc(Cl)c(O)c(N2[C@@H]3CC[C@H]2CN(C(=O)c2ccc(F)cc2Cl)C3)c1	1 to 10 µM

----------
- target_system: GFRα1-RET (Homo sapiens, UniProt P56159)
- Sequence (P56159 25-429 limits assumed): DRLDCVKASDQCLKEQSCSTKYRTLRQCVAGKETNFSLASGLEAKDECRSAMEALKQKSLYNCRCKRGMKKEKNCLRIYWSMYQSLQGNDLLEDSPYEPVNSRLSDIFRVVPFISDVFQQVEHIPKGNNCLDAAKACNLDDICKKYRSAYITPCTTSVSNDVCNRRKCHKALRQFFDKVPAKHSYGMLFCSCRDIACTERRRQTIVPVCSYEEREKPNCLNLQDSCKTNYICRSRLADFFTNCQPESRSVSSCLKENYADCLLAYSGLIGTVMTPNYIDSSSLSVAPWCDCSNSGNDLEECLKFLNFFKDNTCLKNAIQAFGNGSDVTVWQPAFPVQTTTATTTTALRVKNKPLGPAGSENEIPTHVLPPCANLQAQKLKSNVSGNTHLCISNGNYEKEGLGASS
- measurement_notes: Elk1 reporter-gene (luciferase) assay in cells expressing GFRα1-RET
- measurement_context: MG87 murine fibroblasts stably transfected with PathDetect Elk-1, GFRα1 and RET, 6 concentrations, agonist/activator activity
EC50 values by entry

molecule	EC50
COC(=O)c1ccc(S(=O)(=O)N2CCC(c3ccccc3)CC2)cc1N1[C@@H]2CC[C@H]1CN(C(=O)c1ccc(F)cc1Cl)C2	< 1 µM
O=C(c1ccc(F)cc1Cl)N1C[C@H]2CC[C@@H](C1)N2c1cc(S(=O)(=O)N2CCC(c3ccccc3)CC2)cc(F)c1O	< 1 µM
CCCN(C)S(=O)(=O)c1ccc(OC)c(N2[C@@H]3COC[C@H]2CN(C(=O)c2ccc(F)cc2C(F)(F)F)C3)c1	10 to 50 µM
O=C(c1ccc(F)cc1Cl)N1C[C@H]2CC[C@@H](C1)N2c1cc(S(=O)(=O)N2CCC(c3ccccc3)CC2)ccc1CO	< 1 µM
O=C(c1ccc(F)cc1Cl)N1C[C@H]2CC[C@@H](C1)N2c1cc(S(=O)(=O)N2CCC(c3ccccc3)CC2)cc2c1OCO2	< 1 µM
Cn1cnc(-c2ccc(S(=O)(=O)N3CCC(c4ccccc4)CC3)cc2N2[C@@H]3CC[C@H]2CN(C(=O)c2ccc(F)cc2Cl)C3)c1	1 to 10 µM
COc1ccc(S(=O)(=O)N2CCC(OCc3ccccc3)C2)cc1N1C2CCC1CN(C(=O)c1ccc(F)cc1Cl)C2 (racemic)	1 to 10 µM
O=C(c1ccc(F)cc1Cl)N1C[C@H]2CC[C@@H](C1)N2c1cc(S(=O)(=O)N2CCC(c3ccc(F)cc3)CC2)cc(C(F)(F)F)c1O	< 1 µM
O=C(c1ccc(F)cc1Cl)N1C[C@H]2CC[C@@H](C1)N2c1cc(S(=O)(=O)N2CCC(c3ccc(F)cc3)CC2)cc(F)c1O	< 1 µM
COc1ccc(S(=O)(=O)N2CCN(CC(C)c3ccccc3)CC2)cc1N1C2CCC1CN(C(=O)c1ccc(F)cc1Cl)C2 (racemic)	< 1 µM
CN(C)c1ccc(S(=O)(=O)N2CCC(c3ccccc3)CC2)cc1N1[C@@H]2CC[C@H]1CN(C(=O)c1cc(F)c(F)cc1Cl)C2	< 1 µM
O=C(c1ccc(F)cc1Cl)N1C[C@H]2CC[C@@H](C1)N2c1cc(S(=O)(=O)N2CCC(c3ccc(F)cc3)CC2)ccc1O	< 1 µM
CC(C)(C#N)NS(=O)(=O)c1cc(Cl)c(O)c(N2[C@@H]3CC[C@H]2CN(C(=O)c2ccc(F)cc2Cl)C3)c1	1 to 10 µM
COc1ccc(S(=O)(=O)N2CCCC(Cc3ccccc3)C2)cc1N1C2CCC1CN(C(=O)c1ccc(F)cc1Cl)C2 (racemic)	< 1 µM
COc1ccc(S(=O)(=O)N2CCN(CCc3ccc(Cl)cc3)CC2)cc1N1[C@@H]2CC[C@H]1CN(C(=O)c1ccc(F)cc1Cl)C2	< 1 µM
COc1ccc(S(=O)(=O)N2CCC(Cc3ccccc3)CC2)cc1N1CCN(C(=O)c2ccc(F)cc2C(F)(F)F)CC1C (racemic)	1 to 10 µM
CCN(CC)S(=O)(=O)c1cnc(OCc2ccccc2)c(N2[C@@H]3CC[C@H]2CN(C(=O)c2ccc(F)cc2Cl)C3)c1	< 1 µM
COc1ccc(S(=O)(=O)N2CCC(c3ccccc3)CC2)cc1N1[C@@H]2CC[C@H]1CN(C(=O)c1ccc(F)cc1Cl)C2	1 to 10 µM
O=C(c1ccc(F)cc1Cl)N1C[C@H]2CC[C@@H](C1)N2c1cc(S(=O)(=O)N2CCC(CCc3ccccc3)CC2)ccc1OCCO	< 1 µM
